# Experiment summary: NCI Yeast Anticancer Drug Screen. Data for the bub3 strain (AID 167)
# Condition details: S. cerevisiae bub3 mutant strain, at 50.0 µM, active compounds read high
Compounds without any hit were thinned out: in the full panel of roughly 79,000, 15% have a hit.
Kindly supply the reported growth inhibition values for the records listed here.
Give bare numbers, in %.

| Compound | Numeric value |
| --- | --- |
| O=C(C[N+]12CN3CN(CN(C3)C1)C2)c1ccc(-c2ccccc2)cc1 | 39.2 |
| O=C1C2=C(c3ccccc31)C(c1ccccc1Cl)N1C(=O)CCSC1=N2 (stereo unspecified) | 4.65 |
| CCOC(=O)CC1CC(CN)(C(=O)OCC)CO1 (stereo unspecified) | -0.4 |
| C=CCOC1OC(CO)C(O)C(O)C1O (stereo unspecified) | 7.3 |
| CCOc1ccccc1C(=O)Oc1ccc(C)cc1 | -5.5 |

Hello, I would appreciate it if you could give growth inhibition for each entry below.
1. O=C(O)c1ccccc1N=N/C(=N\Nc1ccccc1C(=O)O)c1ccnc2ccccc12
2. COC(=O)c1nc(N)nc(C(=O)OC)c1C(=O)c1ccco1
3. CCC(=O)C(OC(C)=O)C(OC(C)=O)C(OC(C)=O)C(COC(C)=O)OC(C)=O (stereo unspecified)
4. CCCCNS(=O)(=O)c1n[nH]c(=O)[nH]c1=O
5. CCOC(=O)Nc1n[nH]nc1Cl
6. COC(=O)CCc1ccc(C2CO2)cc1 (stereo unspecified)
7. CN(C)CCNCCN
8. CCSSC12CCCN1C(=O)C1CCCN1C2=O (stereo unspecified)

[2.8, 1.55, -3.95, -38, -20.1, -11.2, -9.75, 20.6]

For every listed record, write down its growth inhibition.
1. CC12CCC3c4ccc(O)cc4C(=O)CC3C1CCC2O (stereo unspecified)
2. CC(/C=N\NC(=S)SCc1ccccc1)=N/N=C(N)N
3. N#CC(CNC1CCCCC1)c1ccccc1 (stereo unspecified)

-11.2
52.9
15.1

Give measured growth inhibition for every item shown.
1. O=C(NNC(=O)c1cccc(F)c1)c1cccc(F)c1
2. O=C1CCNC(=O)N1

[-6.4, -10.2]

====

# Experiment summary: NCI Yeast Anticancer Drug Screen. Data for the sgs1 mgt1 strain (AID 161);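 further: 0% = growth of cultures given vehicle only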
# Condition details: S. cerevisiae sgs1 mgt1 strain, at 50.0 µM, active compounds read high
About 79,000 compounds went through this panel and 15% of them were active in at least one assay; those are over-represented in the sample as a whole.
Parameter: growth inhibition (%)
Give bare numbers, in %.

Provide the reported growth inhibition of each entry below, same order.
1. CCCC1OCC(O)C(C(O)C(=O)CN(Cc2ccccc2)Cc2ccccc2)O1 (configuration not stated)
2. C=CCNC(=O)NCCCCC(NC(C)=O)C(=O)NCc1ccccc1 (configuration not stated)
3. Cc1cc(=O)[nH]c(N/N=C/c2ccco2)n1

1.55
-13.6
-16.8

Lab note: each compound below needs its growth inhibition filled in.
1. COCCCNC1=C(C#N)C(=O)NC(c2cccc([N+](=O)[O-])c2)S1 (configuration not stated)
2. CC(Cc1ccco1)(C(=O)O)C(=O)O
3. O=C1CCC(c2ccccc2)C(O)(C(=O)O)C1 (configuration not stated)
4. Nc1ccc(N)c(N)c1
5. O=C(OC1CCC2(CC1)N=NC1(CCC(OC(=O)c3ccccc3)CC1)S2)c1ccccc1 (configuration not stated)

[1.75, -14.8, -13.9, 31.4, -2.25]

Hi, could you look up growth inhibition for each item in my list?
1. O=c1[nH]c2cc([N+](=O)[O-])ccc2nc1/C(=N/Nc1ccccc1)C(O)c1ccco1 (configuration not stated)
2. CCCCNc1ccc2c(c1)Cc1ccccc1-2
3. NC(=O)c1nnn(-c2ccccc2)n1
4. Cc1nnnn1-c1ccc([N+](=O)[O-])cc1

1. 9.2
2. 15.8
3. -10
4. -1.5
